Let's look at some molecules and their measured IC50.
target: Prostaglandin G/H synthase 2 (Homo sapiens); assay: In vivo ability to inhibit cyclooxygenase-2 enzyme in human whole blood was determined; format: organism-based
Please respond with the number in nM and leave the unit unwritten.

The recorded IC50 for entry "CS(=O)(=O)c1ccc(-c2c(-c3ccc(F)cc3)nc3sccn23)cc1" equals 400

IC50 reading for "CS(=O)(=O)c1ccc(-c2c(-c3ccccc3)nc3sccn23)cc1" : 900

Short answer for "Cc1cn2c(-c3ccc(S(C)(=O)=O)cc3)c(-c3ccccc3)nc2s1" : IC50 was 17500

Recorded result, "CS(=O)(=O)c1ccc(-c2c(-c3ccc(F)c(F)c3)nc3sccn23)cc1" , IC50: 2200

----------
target: Prostaglandin G/H synthase 2 (Homo sapiens); format: cell-based, CHO
pIC50: −log10 of the molar value.
Classification field: 1 (yes) = pIC50 at or over 7; 0 (no) = pIC50 under 7.

A selection of reference data follows.
CS(=O)(=O)c1ccc(-c2nc3sc4ccccc4n3c2-c2ccccc2)cc1 0 (no)
Cc1cn2c(-c3ccc(S(C)(=O)=O)cc3)c(-c3ccccc3)nc2s1 1 (yes)
CS(=O)(=O)c1ccc(-c2c(-c3ccc(Cl)cc3)nc3sc(Cl)cn23)cc1 1 (yes)
CS(=O)(=O)c1ccc(-c2c(-c3ccccc3)nc3sccn23)cc1 1 (yes)
CSc1ccc(-c2c(-c3ccccc3)nc3sccn23)cc1 0 (no)

API: above_or_equal(metric=pIC50, cutoff=7) for item "CS(=O)(=O)c1ccc(-c2c(-c3ccc(F)c(F)c3)nc3sccn23)cc1"
1 (yes)

# check: pIC50 of "Cc1csc2nc(-c3ccc(S(C)(=O)=O)cc3)c(-c3ccccc3)n12" is greater than or equal to 7
0 (no)

----------
biological target: Prostaglandin G/H synthase 2 (Homo sapiens, UniProt P35354); format: cell-based, CHO
measure: log10 IC50 (log10 of the value in µM)
Note: values are log10 of IC50 expressed in µM.

Sample "CS(=O)(=O)c1ccc(-c2c(-c3ccc(Cl)cc3)nc3sc(Cl)c(Cl)n23)cc1" ; log10 IC50 observed: 0.56

----------
target: Prostaglandin G/H synthase 1 (Homo sapiens); assay: In vivo ability to inhibit cyclooxygenase-1 enzyme in human whole blood was determined; assay type: organism-based
pIC50: −log10 of the molar value.
measure: pIC50

Readout pIC50 for "CS(=O)(=O)c1ccc(-c2c(-c3ccccc3)nc3sccn23)cc1" , test system Prostaglandin G/H synthase 1 (Homo sapiens), was < 4.52

----------
target: Prostaglandin G/H synthase 2 (Homo sapiens); test: In vivo ability to inhibit cyclooxygenase-2 enzyme in human whole blood was determined; assay type: organism-based
measure: IC50 (µM)
Write the number in µM without appending the unit.

"CS(=O)(=O)c1ccc(-c2c(-c3ccc(F)cc3)nc3sccn23)cc1" tested on Prostaglandin G/H synthase 2 (Homo sapiens) gave IC50: 25

----------
In this section we review reported IC50 values for a set of molecules.
target: Prostaglandin G/H synthase 1 (Homo sapiens, UniProt P23219)
Sequence (P23219 whole entry): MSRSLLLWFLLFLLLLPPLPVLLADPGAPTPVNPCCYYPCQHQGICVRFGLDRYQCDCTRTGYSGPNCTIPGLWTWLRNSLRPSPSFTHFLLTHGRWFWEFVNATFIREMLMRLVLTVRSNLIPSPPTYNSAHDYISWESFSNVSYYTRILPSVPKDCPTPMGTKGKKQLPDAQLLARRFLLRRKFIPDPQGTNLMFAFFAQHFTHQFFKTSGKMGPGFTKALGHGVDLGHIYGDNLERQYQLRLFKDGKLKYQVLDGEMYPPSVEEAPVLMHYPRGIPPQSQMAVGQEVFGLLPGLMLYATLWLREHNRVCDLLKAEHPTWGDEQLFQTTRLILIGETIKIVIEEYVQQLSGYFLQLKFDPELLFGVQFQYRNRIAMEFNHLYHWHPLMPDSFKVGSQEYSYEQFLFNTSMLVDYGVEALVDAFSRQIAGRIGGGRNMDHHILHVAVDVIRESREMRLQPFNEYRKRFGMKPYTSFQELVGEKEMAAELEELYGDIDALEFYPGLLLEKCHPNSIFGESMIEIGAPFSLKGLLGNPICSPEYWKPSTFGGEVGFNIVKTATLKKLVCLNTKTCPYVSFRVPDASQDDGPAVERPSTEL

Cc1csc2nc(-c3ccccc3)c(-c3ccc(S(C)(=O)=O)cc3)n12 > 50 µM

Tested on Prostaglandin G/H synthase 1 (Homo sapiens, UniProt P23219): "CSc1ccc(-c2c(-c3ccccc3)nc3sccn23)cc1" . Observed IC50: 0.32 µM

Case "CS(=O)(=O)c1ccc(-c2nc3sccn3c2-c2ccccc2)cc1" , Prostaglandin G/H synthase 1 (Homo sapiens, UniProt P23219), IC50 recorded as > 50 µM

Lab note: molecule "CS(=O)(=O)c1ccc(-c2c(-c3ccc(F)cc3)nc3sccn23)cc1" tested on Prostaglandin G/H synthase 1 (Homo sapiens, UniProt P23219); recorded IC50 was > 50 µM

----------
assay: Maximum concentration in rats at 1 hr was determined when dosed at 20 mg/Kg perorally; type: ADME, organism-based; set-up: dose 20 mg/Kg, route oral; details: rat, in vivo, po
measure: Cmax (nM)
Just the number in nM, nothing appended.

GET /value?item= "CS(=O)(=O)c1ccc(-c2c(-c3ccccc3)nc3sccn23)cc1" &field=Cmax returns 1000

----------
// reported pIC50 per item
Target: Prostaglandin G/H synthase 2 (Homo sapiens)
Sequence (P35354 whole entry): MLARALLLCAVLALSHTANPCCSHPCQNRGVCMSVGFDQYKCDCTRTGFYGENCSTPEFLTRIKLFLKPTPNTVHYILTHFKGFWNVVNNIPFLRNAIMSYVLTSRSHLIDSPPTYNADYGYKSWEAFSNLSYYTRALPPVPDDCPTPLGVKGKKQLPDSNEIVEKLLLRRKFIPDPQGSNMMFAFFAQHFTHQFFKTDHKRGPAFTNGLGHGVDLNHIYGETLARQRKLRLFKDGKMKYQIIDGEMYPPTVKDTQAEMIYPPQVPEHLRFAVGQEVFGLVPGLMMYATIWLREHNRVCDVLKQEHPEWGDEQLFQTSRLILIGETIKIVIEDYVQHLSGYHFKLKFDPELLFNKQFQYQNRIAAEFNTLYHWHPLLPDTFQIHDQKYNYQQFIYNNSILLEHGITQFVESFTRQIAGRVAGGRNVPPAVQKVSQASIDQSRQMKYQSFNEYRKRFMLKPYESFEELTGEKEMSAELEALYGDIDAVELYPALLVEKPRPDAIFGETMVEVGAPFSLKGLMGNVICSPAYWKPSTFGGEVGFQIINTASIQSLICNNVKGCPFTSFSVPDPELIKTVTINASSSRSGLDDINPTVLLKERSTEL
Assay type: cell-based, CHO
For clarity, pIC50 is expressed as the negative log10 of concentration in mol/L.

CSc1ccc(-c2nc3sccn3c2-c2ccccc2)cc1 5.30
CCOC(=O)Cc1csc2nc(-c3ccccc3)c(-c3ccc(S(C)(=O)=O)cc3)n12 6.05
CS(=O)(=O)c1ccc(-c2nc3sccn3c2-c2ccccc2)cc1 5.49
CS(=O)(=O)c1ccc(-c2c(-c3ccc(F)cc3)nc3sccn23)cc1 7.85
Cc1sc2nc(-c3ccccc3)c(-c3ccc(S(C)(=O)=O)cc3)n2c1C 5.30

// below: pIC50 requested for another compound
Consider "Cc1csc2nc(-c3ccccc3)c(-c3ccc(S(C)(=O)=O)cc3)n12" . Its measured pIC50 is 5.52

----------
Molecular target: Prostaglandin G/H synthase 2 (Homo sapiens)
Sequence (P35354 whole entry): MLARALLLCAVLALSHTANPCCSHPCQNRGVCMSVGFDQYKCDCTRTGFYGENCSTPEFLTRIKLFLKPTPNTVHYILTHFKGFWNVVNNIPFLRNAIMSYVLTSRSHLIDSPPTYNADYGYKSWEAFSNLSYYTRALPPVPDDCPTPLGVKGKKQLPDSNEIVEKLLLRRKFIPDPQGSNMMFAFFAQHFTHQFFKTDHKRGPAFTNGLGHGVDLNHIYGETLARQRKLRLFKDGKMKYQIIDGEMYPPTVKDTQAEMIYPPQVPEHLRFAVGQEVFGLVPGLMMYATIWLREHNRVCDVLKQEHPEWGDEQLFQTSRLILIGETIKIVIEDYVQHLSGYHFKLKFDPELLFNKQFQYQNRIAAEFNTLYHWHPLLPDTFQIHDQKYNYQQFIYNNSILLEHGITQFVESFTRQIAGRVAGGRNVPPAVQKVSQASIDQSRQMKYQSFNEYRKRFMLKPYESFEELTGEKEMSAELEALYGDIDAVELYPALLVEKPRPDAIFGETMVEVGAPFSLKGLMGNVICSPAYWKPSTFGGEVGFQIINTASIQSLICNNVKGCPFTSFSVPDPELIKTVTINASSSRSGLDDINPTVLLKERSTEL
Assay type: cell-based, CHO
The following compounds are listed with their measured IC50 values.

Example compounds with recorded IC50:
Cc1sc2nc(-c3ccc(S(C)(=O)=O)cc3)c(-c3ccccc3)n2c1C > 5 µM
CS(=O)(=O)c1ccc(-c2c(-c3ccccc3)nc3scc(CC(=O)O)n23)cc1 > 5 µM

# evaluate next
# lookup: "CS(=O)(=O)c1ccc(-c2c(-c3ccccc3)nc3sc4ccccc4n23)cc1" on Prostaglandin G/H synthase 2 (Homo sapiens), IC50 = > 5 µM
